biological target: GABA A receptor α5β3γ2 (Homo sapiens, UniProt P18507+P31644); construct: expressed in transfected cells; host or cells: HEK293 cells, transiently transfected; membranes prepared; assay: [3H]flumazenil competition binding, human GABA A α5β3γ2; details: competition for [3H]flumazenil (0.5 nM) binding, HEK293 cells expressing human (transiently transfected) α5β3γ2; means of two determinations; read-out: Ki[nM] hα5
PARAMETER: Ki (nM)

Incoming: What does the record list as Ki for `Cc1onc(-c2ccccc2)c1-c1nnc(-c2ccc(OC(F)F)cc2)o1` ?
Outgoing: 58.9

Incoming: Sample `Cc1onc(-c2ccccc2)c1-c1nnc(-c2ccc(-n3ccnc3C)cc2)o1` — what was its Ki?
Outgoing: 30.7

P: CCOc1ccccc1-c1nnc(-c2c(-c3ccccc3)noc2C)o1
Q: COc1cc(F)ccc1-c1nnc(-c2c(-c3ccccc3)noc2C2CC2)o1
R: Cc1onc(-c2ccccc2)c1-c1nnc(-c2cccc(F)c2)o1
Incoming: Rank by Ki (largest to smallest). # respond with the labels, arranged in the requested order
Outgoing: R, P, Q
(R: 100 nM, P: 58.2 nM, Q: 11.9 nM)
